# System: L1210 leukemia ip in BDF1 mice, survival T/C
# experiment-notes: NCI In Vivo Anticancer Drug Screen. Data for tumor model L1210 Leukemia (intraperitoneal) in B6D2F1 (BDF1) mice
# experimental-parameters: endpoint: mean survival time; dose: 400.0 mg/kg/injection; schedule: Q01DX009 (ip); vehicle: gum acacia; higher = longer survival
Toxic doses and inconclusive results are not listed.
Reported T/C values follow for various compounds

Worked cases, answers included:
| record-smiles | test-readout | reported-result |
| --- | --- | --- |
| CC(=O)COc1cccc2ccccc12 | T/C | 97 % of control |
| Cc1c(N=Cc2ccccc2)c(=O)n(-c2ccccc2)n1C | T/C | 88 % of control |
| CCc1ccccc1NC(=O)Nc1cccc2ccccc12 | T/C | 88 % of control |

[in] I'd like to know its T/C. The compound in question is `CCOC(=O)c1[nH]nc(CC)c1O`
[out] 105 % of control

---

Catalogue of T/C readings, one per entry.
# Test system: L1210 leukemia ip in BDF1 mice, survival T/C
# experiment-notes: NCI In Vivo Anticancer Drug Screen. Data for tumor model L1210 Leukemia (intraperitoneal) in B6D2F1 (BDF1) mice
# experimental-parameters: endpoint: mean survival time; dose: 200.0 mg/kg/injection; schedule: Q01DX001 (ip); vehicle: other; higher = longer survival
Toxic doses and inconclusive results are not listed.

Known T/C results, listed for orientation:
| molecule | T/C |
| --- | --- |
| CCOC(=O)C1C(O)=C(C(=O)Nc2ccccc2)C(=O)C(C(=O)O)C1C1CC=CCC1 (stereo unspecified) | 100 % of control |
| Cc1c(Cl)c(C)c(Sc2c(C)c(Cl)c(C)c(Br)c2O)c(O)c1Br | 88 % of control |
| CC(=O)Oc1cc(-c2ccc3c(c2)C2(C)c4cc(OC(C)=O)c5ccccc5c4OC2(C)N3C)c(OC(C)=O)c2ccccc12 (stereo unspecified) | 88 % of control |
| CO/C=C(\C)C(=O)NC(=O)Nc1ccccc1 | 98 % of control |
| Cc1ccc(NCC(O)CN2CCN(CC(O)CNc3ccc(C)cc3)CC2)cc1 (stereo unspecified) | 95 % of control |
| O=C(c1ccccc1)c1ccccc1O | 101 % of control |
| Oc1ccccc1C=Nc1ccccc1S.[Co] | 100 % of control |
| COc1cc2c(cc1OC)C(C(N)=O)NCC2 (stereo unspecified) | 97 % of control |

[in] Under L1210 leukemia ip in BDF1 mice, survival T/C: T/C value of `Clc1ccc(Nc2ncnc3ncn(Cc4ccccc4)c23)cc1` ?
[out] 93 % of control

[in] Next entry: `CS(=O)(=O)NC(=O)NCCCl`
[out] 95 % of control

[in] NC(N)=NCCCC(NC(=O)c1ccccc1)C(=O)O (stereo unspecified) ?
[out] 100 % of control

---

# System: L1210 leukemia ip in BDF1 mice, survival T/C
# experiment-notes: NCI In Vivo Anticancer Drug Screen. Data for tumor model L1210 Leukemia (intraperitoneal) in B6D2F1 (BDF1) mice
# experimental-parameters: endpoint: mean survival time; dose: 100.0 mg/kg/injection; schedule: Q04DX002 (ip); vehicle: Klucel (hydroxypropylcellulose) (HPC); higher = longer survival
Inconclusive results and toxic doses are left out.
Below, each entry is listed alongside its reported T/C.

| molecule | T/C |
| --- | --- |
| CCCN(CCC)CCNCC(Cc1ccccc1)c1ccccc1 (configuration not stated) | 99 % of control |

[in] What T/C value was documented for this molecule, `O=C(O)c1ccccc1C(=O)NCc1ccc(Cl)cc1Cl` ?
[out] 88 % of control

[in] Follow-up item: Cc1ccc(CS(=O)C(Cl)(Cl)c2ccc(C)cc2)cc1 (configuration not stated)
[out] 97 % of control

[in] Please answer likewise for CC1CN(CC2CCCCCCCCCCC2=O)CC(C)O1 (configuration not stated)
[out] 116 % of control

[in] Further, for CCSCCC(C)(N)C(=O)O (configuration not stated) ?
[out] 97 % of control

[in] What do we get for `Cc1cccc(Cl)c1NC(=S)Nc1ccccc1` ?
[out] 101 % of control

[in] Okay, and `O=C(C[n+]1ccc(/C=N\O)cc1)c1ccc(-c2ccc(C(=O)C[n+]3ccc(/C=N/O)cc3)cc2)cc1` ?
[out] 103 % of control

[in] Then this molecule: CC(=O)OC1CCC2(C)C(=CCC3C2CCC2(C)c4c(c(-c5ccccc5)nn4-c4ccccc4)CC32)C1 (configuration not stated)
[out] 98 % of control

[in] `CC1CCN(C(=O)C(c2ccccc2)c2ccccc2)CC1` ?
[out] 101 % of control

[in] # repeat for CC(C(=O)NN)C(C)(C)O (configuration not stated)
[out] 97 % of control

[in] `O=C(Nc1ccc(Cl)cc1C(=O)c1ccccc1)c1ccc(Cl)cc1` ?
[out] 92 % of control

[in] Please answer likewise for CCCCCCCCC(=O)N1CCCCC1C (configuration not stated)
[out] 96 % of control
